Test system: K4 kissing-loop RNA reporter;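 note: bound reporter read as fluorescence of individual clusters on recovered sequencing chips by microscopy, with normalized cluster intensities fitted with a binding model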
Assay: apparent KD of K4 kissing-loop reporter; higher = weaker reporter binding
Settings: Eterna round: R107; input ligand: arginine 13.2 mM
Reported apparent KD of K4 kissing-loop reporter values follow for various sequences
Give just the numeric value; nM need not be written.

Before answering, review these 4 worked examples.
What does the data say about its apparent KD of K4 kissing-loop reporter? Entry: UGAUACCAGACGGCCGCCACUAGGACCGGGAGUGAUGUUCCGAAAAUUAAAUGCUCGGCCGCCACUAGGACCGGGUCUGGUAUCU [TrypBX 28 #DoubleAptamer #SwitchBubble]
253

What does the data say about its apparent KD of K4 kissing-loop reporter? Entry: UGUCAUGGAAACAUGAACGUUGAAAUAAGACGAGGACCGGUACGGCCGCCACUCGAAUAAUGGUCAGUGAUGUUGACUGGAAUAA [KL-SSTryp-A form1 sub7 #dotplot2>1]
104

What does the data say about its apparent KD of K4 kissing-loop reporter? Entry: CUAUCGGUGCCAGUGAUGUUGGUACCGCCACGAGGACCGGUACGGCCGCCACUCGCAUUAGAUGAUCACACAGUGUAUACUGCUA [Aleusorza]
128

What does the data say about its apparent KD of K4 kissing-loop reporter? Entry: UGACUGGACUGAAGGAGCGCGCGAGACAAAGUCUCGAACUGGUAGUGAUGUUAUCAAAUAACGCAGGUAGGUCGCAGUCUAGUCU [ArgBS 12 #SwitchBubble #StaticStem]
167

Now look at this entry.
What does the data say about its apparent KD of K4 kissing-loop reporter? Entry: CCUCUCCUUGAUAGUGAUGUUAUCAAGGACAAGGAUAUCAUCUCAAUGAGAAGGUGUCCUUGAUAACAUGGAGGUCUGAAACAGA [Omei KL FMN A Exc C v1]
126

---

Test system: MS2 coat protein
Test: apparent KD of MS2 coat protein; designed switch direction (-1 OFF switch, 1 ON switch): 1; higher = weaker reporter binding
Conditions: Eterna round: R95; input ligand: microRNA oligo, concentration not stated
recorded metric: apparent KD of MS2 coat protein (nM)
Give just the numeric value; nM need not be written.

GET /values?readout=apparent KD of MS2 coat protein&system=MS2 coat protein&item= AGUCCUGAAAAGAAAAUAAUAAGUGAUGUACAUGAGGAUCACCCAUGUCAUGUACAAGUUCUAUGCUCGUCAUAUAA [Sensorship 24 - Jieux - Sensor for hsa-mir-208a] (puzzle: Sensor for hsa-mir-208a)
32.2

GET /values?readout=apparent KD of MS2 coat protein&system=MS2 coat protein&item= CAGCGCUGUCGAGAGGAUAUGCAGUGAUGGACAUGAGGAUCACCCAUGUUAGCGAUAGCAUUACAGUAGAAGGCUCUACAGCUGC [Soteed - 14] (puzzle: Same State 2)
16.4

GET /values?readout=apparent KD of MS2 coat protein&system=MS2 coat protein&item= AGUCCAGCGAAAGCUGGACAAAGACAUGUACAUGAGGAUCACCCAUGUCAUGUACAAGUUUUUUGCUCGUCUUAUAA (puzzle: Sensor for hsa-mir-208a)
12.7

GET /values?readout=apparent KD of MS2 coat protein&system=MS2 coat protein&item= UUAAGCCACGGGCAGGAUAUGUGUUAAAAUACAUGAGGAUCACCCAUGUGCAGGUGUAACACCUGACAGAAGGGCCAAUCGCGGC [Soondi - 2] (puzzle: Same State 2)
43

GET /values?readout=apparent KD of MS2 coat protein&system=MS2 coat protein&item= AUUAAACAUGAGGAUCACCCAUGUCAACAAAGUCGAGGAUAUGGGCAAAUAUAAUAAGAACCAGAAGGCGAAUAAU [salish99_ss1_r3_059] (puzzle: Same State 1)
190

GET /values?readout=apparent KD of MS2 coat protein&system=MS2 coat protein&item= AUAAGUUUGAUGCUCGUCUCUCCGUACAGACAUGAGGAUCACCCAUGUAGUCGGGAAGUAGCCCGGCCUGUAUGGCC [Magequ] (puzzle: Sensor for hsa-mir-208a)
15.7

Now look at this entry.
GET /values?readout=apparent KD of MS2 coat protein&system=MS2 coat protein&item= GUUAAACAUGAGGAUCACCCAUGUCAAUGUAGUCGAGGAUAUGGGCAGCUAUGAGGCGUACUAGAAGGCGAUGAGU [Mat - Same State 1 - Mod of JL - D14] (puzzle: Same State 1)
133
